Tested on: PC-3 (prostate) cells
Assay: Antiproliferative sulforhodamine B assay, PC-3
Assay type: cell-based
Conditions: Homo sapiens, Prostate cell, 48 h treatment, SRB, read-out: Total growth inhibition (TGI)
MEASURED_PROPERTY: IC100

As a guide, the following entries are already answered.
{"COMPOUND": "CC1COC(C)(C)C2=C1c1ccc(O)cc1CC2 (stereo not drawn)", "IC100": "> 250 µg/mL"}
{"COMPOUND": "COc1cc2c(cc1OC)C1=C(CC2)C(C)(C)OCC1C (stereo not drawn)", "IC100": "> 250 µg/mL"}

From here, focus on the item given below.
Fetch value of IC100 on PC-3 (prostate) cells for CC1COC(C)(C)C2=C1c1cccc(O)c1CC2 (stereo not drawn) . > 250 µg/mL

---

Test: Antiproliferative sulforhodamine B assay, HaCat normal cell line
Assay type: cell-based, human
Details: human; HaCat normal immortalized keratinocytes, 48 h treatment, SRB
MEASURED_PROPERTY: GI50 at 48 h (µg/mL)
Please respond with the number in µg/mL and leave the unit unwritten.

As a guide, the following entries are already answered.
{"MOLECULE": "COc1cccc2c1C(=O)c1c(O)c3c(c(O)c1C2=O)C[C@@](O)(C(=O)CO)C[C@@H]3O[C@H]1C[C@H](N)[C@H](O)[C@H](C)O1 [Doxorubicine, doxorubicin, reference compound]", "GI50 at 48 h (µg/mL)": 0.23}
{"MOLECULE": "COc1ccc2c(c1)CCC1=C2C(C)COC1(C)C (stereo not drawn)", "GI50 at 48 h (µg/mL)": 26.1}

From here, focus on the item given below.
Respond only with GI50 at 48 h recorded for COc1ccc2c(c1)C1=C(CC2)C(C)(C)OCC1C (stereo not drawn) 25

---

System: MCF-7 (breast) cells
Assay: Antiproliferative sulforhodamine B assay, MCF-7
Assay type: cell-based
Conditions: Homo sapiens, MCF7; MCF-7 mammary, 48 h treatment, SRB; read-out: Total growth inhibition (TGI)
Recorded IC100 for the following molecules

{"MOLECULE": "COc1cc2c(cc1OC)C1=C(CC2)C(C)(C)OCC1C (stereo not drawn)", "IC100": "> 250 µg/mL"}
{"MOLECULE": "CC1COC(C)(C)C2=C1c1ccc(O)cc1CC2 (stereo not drawn)", "IC100": "> 250 µg/mL"}

From here, focus on the item given below.
Respond only with IC100 recorded for CC1COC(C)(C)C2=C1c1cccc(O)c1CC2 (stereo not drawn) > 250 µg/mL

---

Experiment: Antiproliferative sulforhodamine B assay, HaCat normal cell line
Format: cell-based, human
Settings: human; HaCat normal immortalized keratinocytes, 48 h treatment, SRB
MEASURED_PROPERTY: GI50 at 48 h

As a guide, the following entries are already answered.
{"COMPOUND": "COc1cc2c(cc1OC)C1=C(CC2)C(C)(C)OCC1C (stereo not drawn)", "MEASURED_PROPERTY": "GI50 at 48 h", "OBS_VALUE": "> 250 µg/mL"}
{"COMPOUND": "CC1COC(C)(C)C2=C1c1ccc(O)cc1CC2 (stereo not drawn)", "MEASURED_PROPERTY": "GI50 at 48 h", "OBS_VALUE": "> 250 µg/mL"}

Respond only with GI50 at 48 h recorded for CC1COC(C)(C)C2=C1c1cccc(O)c1CC2 (stereo not drawn) > 250 µg/mL
